Assignment: determine reported CLint scaled at 1 μM for the given compounds.
- Assay info: Metabolic stability in rat liver microsomes
- Assay type: in vitro ADME
- Condition set: pH 7.4, 1.00 μM compound, 0.5 mg/mL protein, read-out: intrinsic clearance, Clint
Numbers only, in mL/min/kg.

Examples with answers:
C[C@@H](COCCC(=O)N1CCN(c2ncc(C(F)(F)F)cn2)CC1)Nc1cn[nH]c(=O)c1C(F)(F)F [RBN-2397, reference compound] = 144
O=C(CC[C@@H]1C[C@@H](F)CN1c1cc(C(F)(F)F)c(=O)[nH]n1)N1CCN(c2ncc(C(F)(F)F)cn2)CC1 [Compound 20] = 74.4

// moving on: another record for CLint scaled at 1 μM
Measured CLint scaled at 1 μM, O=C(CC[C@@H]1CCCN1c1cc(C(F)(F)F)c(=O)[nH]n1)N1CCN(c2ncc(C(F)(F)F)cn2)CC1 [Compound 6] : 137

----------
- Assay info: Pharmacokinetic properties in SD rats after single intravenous injection and oral administration
- Format: in vivo
- Condition set: rat, plasma; Intravenous injection, 1 mg/kg, SD male rats
Readout name: Cmax (ng/mL)
Numbers only, in ng/mL.

Examples with answers:
O=C(CC[C@@H]1CCCN1c1cc(C(F)(F)F)c(=O)[nH]n1)N1CCN(c2ncc(C(F)(F)F)cn2)CC1 = 1950
O=C(CC[C@@H]1C[C@@H](Oc2ccccc2)CN1c1cc(C(F)(F)F)c(=O)[nH]n1)N1CCN(c2ncc(C(F)(F)F)cn2)CC1 = 1210
O=C(CC[C@@H]1C[C@H](Oc2ccccc2)CN1c1cc(C(F)(F)F)c(=O)[nH]n1)N1CCN(c2ncc(C(F)(F)F)cn2)CC1 = 477
C[C@@H](COCCC(=O)N1CCN(c2ncc(C(F)(F)F)cn2)CC1)Nc1cn[nH]c(=O)c1C(F)(F)F [RBN-2397, reference compound] = 634
O=C(CC[C@@H]1C[C@@H](F)CN1c1cc(C(F)(F)F)c(=O)[nH]n1)N1CCN(c2ncc(C(F)(F)F)cn2)CC1 = 734

Measured Cmax, O=C(COC[C@@H]1CCCN1c1cc(C(F)(F)F)c(=O)[nH]n1)N1CCN(c2ncc(C(F)(F)F)cn2)CC1 : 720

----------
Here's a batch of compounds along with measured IC50 for PARP1 (Homo sapiens (Human)).
Give bare numbers, in nM.

CO[C@@H]1C[C@@H](CCC(=O)N2CCN(c3ncc(C(F)(F)F)cn3)CC2)N(c2cc(C(F)(F)F)c(=O)[nH]n2)C1 [Compound 44] = 18
O=C(CC[C@@H]1CC(F)(F)CN1c1cc(C(F)(F)F)c(=O)[nH]n1)N1CCN(c2ncc(C(F)(F)F)cn2)CC1 [Compound 23] = 9.7
C[C@H]1CC[C@@H](CCC(=O)N2CCN(c3ncc(C(F)(F)F)cn3)CC2)N1c1cc(C(F)(F)F)c(=O)[nH]n1 [Compound 39] = 60
O=C([C@@H]1C[C@H](Oc2ccccc2F)CN1c1cc(C(F)(F)F)c(=O)[nH]n1)N1CCN(c2ncc(C(F)(F)F)cn2)CC1 [Compound 67] = 12000
O=C(CC[C@@H]1C[C@@H](O)CN1c1cc(C(F)(F)F)c(=O)[nH]n1)N1CCN(c2ncc(C(F)(F)F)cn2)CC1 [Compound 31] = 25.9
O=C(CC[C@@H]1CCCCN1c1cc(C(F)(F)F)c(=O)[nH]n1)N1CCN(c2ncc(C(F)(F)F)cn2)CC1 [Compound 22] = 31.6
O=C(CC[C@@H]1C[C@@H]2CCC[C@@H]2N1c1cc(C(F)(F)F)c(=O)[nH]n1)N1CCN(c2ncc(C(F)(F)F)cn2)CC1 [Compound 24] = 4.1
O=C(CC[C@@H]1C[C@H](N2CCOCC2)CN1c1cc(C(F)(F)F)c(=O)[nH]n1)N1CCN(c2ncc(C(F)(F)F)cn2)CC1 [Compound 35] = 47
C[C@H]1CC(CCC(=O)N2CCN(c3ncc(C(F)(F)F)cn3)CC2)N(c2cc(C(F)(F)F)c(=O)[nH]n2)C1 (stereo partly shown) [Compound 30] = 7.6
CCO[C@H]1C[C@@H](CCC(=O)N2CCN(c3ncc(C(F)(F)F)cn3)CC2)N(c2cc(C(F)(F)F)c(=O)[nH]n2)C1 [Compound 36] = 14.4

Below is a list of compounds. For each, state its recorded IC50.
1. N[C@H]1C[C@@H](CCC(=O)N2CCN(c3ncc(C(F)(F)F)cn3)CC2)N(c2cc(C(F)(F)F)c(=O)[nH]n2)C1 [Compound 42]
2. O=C([C@@H]1C[C@H](Oc2ccccc2)CN1c1cc(C(F)(F)F)c(=O)[nH]n1)N1CCN(c2ncc(C(F)(F)F)cn2)CC1 [Compound 66]
3. O=C(CC[C@@H]1C[C@H](N2CCCC2)CN1c1cc(C(F)(F)F)c(=O)[nH]n1)N1CCN(c2ncc(C(F)(F)F)cn2)CC1 [Compound 38]

Completion:
1: 6; 2: 427; 3: 36

Reference source for all entries: patent US20240294509A1
